Target: Beta-2 adrenergic receptor (Homo sapiens) (UniProt P07550)
Sequence (P07550 whole entry, looked up): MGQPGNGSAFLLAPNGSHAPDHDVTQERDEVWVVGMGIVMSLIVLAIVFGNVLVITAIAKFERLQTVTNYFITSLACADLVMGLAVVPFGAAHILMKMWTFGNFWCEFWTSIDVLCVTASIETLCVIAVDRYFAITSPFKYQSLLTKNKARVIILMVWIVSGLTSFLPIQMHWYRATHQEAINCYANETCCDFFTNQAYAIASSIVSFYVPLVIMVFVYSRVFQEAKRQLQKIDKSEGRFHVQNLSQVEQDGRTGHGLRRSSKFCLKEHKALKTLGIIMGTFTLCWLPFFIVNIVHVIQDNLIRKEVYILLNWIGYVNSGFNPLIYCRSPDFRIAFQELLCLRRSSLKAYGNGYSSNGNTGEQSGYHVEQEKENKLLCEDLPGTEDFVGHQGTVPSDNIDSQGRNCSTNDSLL
Assay: Adrenergic beta2 receptor (ADRB2) small molecule antagonists, cell-based qHTS assay (AID 1963592); note: nearly all actives have a fitted effect of over 50% in size
Conditions: CHO-ADRB2 cells, isoproterenol-stimulated cAMP HTRF ratio, 0.5 h; series mostly up to 92.4 µM
Records with an inconclusive call do not appear. Active and inactive are the calls of the source. Calls come from the whole dose curve.
A correct response names exactly one class from 1.0 (active), 0.0 (inactive)

Worked examples, 5 molecules total:
Task: State the result this test recorded for "CC1=Nc2ccccc2C1(C)C" .
Result: 0.0

Task: Assay result, entry "c1cc(CCCc2ccncc2)ccn1" — outcome?
Result: 0.0

Task: Outcome? "COC(=O)c1ccc(C(=O)OC)c(C(=O)OC)c1"
Result: 0.0

Task: What was the test verdict on "Cc1cc(C)c(C)c(C)c1" ?
Result: 0.0

Task: Answer briefly: the call reported for "CC(C)OC(=O)c1ccccc1C(=O)OC(C)C" in this assay.
Result: 0.0

Continue with the molecule presented below.
Task: Which outcome was assigned to CCCCC(CC)CNCC(CC)CCCC (centres undefined) in this test?
Result: 0.0
